assay: Relative bioavailability and food effect study, single oral dose of 450 mg, plasma PK of Compound 1; assay type: in vivo, human; settings: both sexes, human, plasma; single oral 450 mg, all fasted treatments
Quantity: half-life

# input May I ask what half-life has been recorded for COc1nc(C(=O)NC[C@](C)(O)C(F)(F)F)c(N)cc1C(F)(F)F ?
# output ~16 h

---

assay: ADME study: plasma PK of Compound 1 at steady state (LC-MS/MS); assay type: in vivo, human; conditions: male, human, oral, 400 mg b.i.d., steady state, CV % 45.1%, read-out: Steady state plasma clearance (CLss/F), mean (converted)
Quantity: CL/F
Quick note: unit goes after the number.

# input May I ask what CL/F has been recorded for COc1nc(C(=O)NC[C@](C)(O)C(F)(F)F)c(N)cc1C(F)(F)F ?
# output 947 mL/min

---

experiment: ADME study: metabolite pattern analysis in plasma; format: in vivo, human; conditions: male, human, oral, 400 mg; plasma time pools of N = 6 subjects, metabolite pattern analysis, linear trapezoidal method; read-out: AUC0-48 h in plasma
Quantity: AUC(0-t) (µM·h)
Only the number, expressed in µM·h, is required.

# input May I ask what AUC(0-t) has been recorded for COc1nc(C(=O)NC[C@](C)(O)C(F)(F)F)c(N)cc1C(F)(F)F [Compound 1] ?
# output 22.1

---

Assay: ADME study: plasma PK of Compound 1 at steady state (LC-MS/MS)
Assay type: in vivo, human
Settings: male, human, oral, 400 mg, Day 5, 0-12 hours, steady state, mean of N = 6
Description: Six healthy male subjects of aged 18 to 55 years (inclusive) were included in this study. All treatment administrations (Day 1 to Day 12) occurred approximately 30 minutes following consumption of a standardized meal. […] Pharmacokinetic samples were obtained and evaluated in all subjects. The PK parameters were based on the actual recorded sampling times and non-compartmental method(s) with Phoenix WinNonLin (Version 6.4). […]
Quantity: Cmax (ng/mL)
Only the number, expressed in ng/mL, is required.

# input May I ask what Cmax has been recorded for COc1nc(C(=O)NC[C@](C)(O)C(F)(F)F)c(N)cc1C(F)(F)F ?
# output 1680

---

assay: ADME study: plasma PK of Compound 1 at steady state (LC-MS/MS); assay type: in vivo, human; conditions: male, human, oral, 400 mg b.i.d., steady state, Day 5, range 1.0 hour-4.0 hours
Quantity: Tmax (h)
Only the number, expressed in h, is required.

# input May I ask what Tmax has been recorded for COc1nc(C(=O)NC[C@](C)(O)C(F)(F)F)c(N)cc1C(F)(F)F [Compound 1] ?
# output 4

---

test: ADME study: plasma PK of Compound 1 at steady state (LC-MS/MS); assay type: in vivo, human; conditions: male, human, oral, 400 mg b.i.d., steady state, CV % 48.1%, read-out: Apparent volume of distribution (Vz/F), mean
Quantity: Vd/F (L)
Only the number, expressed in L, is required.

# input May I ask what Vd/F has been recorded for COc1nc(C(=O)NC[C@](C)(O)C(F)(F)F)c(N)cc1C(F)(F)F ?
# output 335

---

experiment: ADME study: metabolite pattern analysis in plasma; type: in vivo, human; conditions: male, human, oral, 400 mg; plasma time pools of N = 6 subjects, AUCinf = AUClast + AUCt-inf
Quantity: AUC(0-inf) (µM·h)
Only the number, expressed in µM·h, is required.

# input May I ask what AUC(0-inf) has been recorded for COc1nc(C(=O)NC[C@](C)(O)C(F)(F)F)c(N)cc1C(F)(F)F ?
# output 22.7
